Numbers sourced from patent US20170029454A1.

- TARGET OF ASSAY: L363 antibody
- METHOD DESCRIPTION: Surface plasmon resonance: binding of immobilized L363 antibody to CD1d-lipid complexes
- CONDITION: lipid loaded on mCD1d; single cycle SPR, Biacore T200; read-out: Affinity Kd (Kdiss/Kass)
EXPERIMENTAL READOUT: pKd
Keep it numeric: pKd is minus log10 of the concentration in mol/L.

Examples with their reported pKd follow.
[[record]]
molecule = "CCCCCCCCCCCCCCCCCCCCCCCCCC(=O)N[C@@H](COC1OC(CO)C(O)C(O)C1O)C(O)[C@H](O)CCCCCCCCCCCCCC (stereo partly drawn) [αGalCer]"
target_of_assay = "L363 antibody"
experimental_readout = "pKd"
test_result = 7.01

[[record]]
molecule = "CCCCCCCC/C=C\\CCCCCCCCCCCCCC(=O)N[C@@H](COC1OC(CO)C(O)C(O)C1O)C(O)/C=C/CCCCCCCCCCCCC (stereo partly drawn) [αGalCer24:1]"
target_of_assay = "L363 antibody"
experimental_readout = "pKd"
test_result = 6.46


Record CCCCCCCCCCCCC/C=C/C(O)[C@H](COC1OC(CO)C(O)C(O)C1O)NC(=O)CCCCCCCCCCCCCCCCCCCCCCCCC (stereo partly drawn) [αGluCer] : what is its pKd with L363 antibody?
5.30
